Overview of recorded remaining activity at 1 µM for various compounds
# Tested system: GST-CLK1cat (amino acids 141–484 of human CLK1) (Homo sapiens, UniProt P49759)
# Construct: containing amino acids 141–484 of human CLK1; made in house; host or cells: E. coli
# Sequence (P49759 141-484): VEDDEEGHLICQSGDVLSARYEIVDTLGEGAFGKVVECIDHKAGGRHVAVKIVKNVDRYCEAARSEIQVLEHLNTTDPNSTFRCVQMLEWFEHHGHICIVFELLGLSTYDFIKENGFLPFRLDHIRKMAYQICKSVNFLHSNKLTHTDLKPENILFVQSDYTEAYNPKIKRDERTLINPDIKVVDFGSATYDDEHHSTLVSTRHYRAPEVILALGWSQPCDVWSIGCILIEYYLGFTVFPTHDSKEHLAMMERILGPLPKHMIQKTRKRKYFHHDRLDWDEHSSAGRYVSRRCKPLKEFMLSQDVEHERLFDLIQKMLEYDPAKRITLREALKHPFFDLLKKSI
# Measurement protocol: Kinase-GLO luminescent assay of CLK1 catalytic activity
# Format: biochemical
# Experimental parameters: read-out: CLK1 residual activity
In your response, the unit should come after the numeric value.

Known results for compounds:
[[record]]
compound = "COc1ccc2c3ccnc(C)c3n(CC=C(C)C)c2c1 [AnnH73]"
tested_system = "GST-CLK1cat (amino acids 141–484 of human CLK1) (Homo sapiens, UniProt P49759)"
endpoint_result = "2%"

[[record]]
compound = "COc1ccc2c(c1)[nH]c1c(C)nccc12 [harmine]"
tested_system = "GST-CLK1cat (amino acids 141–484 of human CLK1) (Homo sapiens, UniProt P49759)"
endpoint_result = "23%"

[[record]]
compound = "CCOC(=O)CCn1c2cc(OC)ccc2c2ccnc(C)c21 [AnnH32]"
tested_system = "GST-CLK1cat (amino acids 141–484 of human CLK1) (Homo sapiens, UniProt P49759)"
endpoint_result = "44%"


Q) # remaining activity at 1 µM lookup, item Cc1nccc2c3ccc(Cl)c(Cl)c3n(CC#N)c12 [AnnH69]
A) 33%

---

# Tested system: GST-DYRK1A-ΔC (amino acids 1–499 of rat DYRK1A) (Rattus norvegicus, UniProt Q63470)
# Construct: containing amino acids 1–499 of rat DYRK1A; made in house; host or cells: E. coli
# Measurement protocol: Kinase-GLO luminescent assay of DYRK1A catalytic activity
# Assay type: biochemical
# Experimental parameters: 1 µM inhibitor concentration; residual activity relative to control without inhibitor; read-out: DYRK1A residual activity
The label t is reserved for remaining activity at 1 µM strictly under 30%; f covers values equal to or above it.

[[record]]
compound = "COc1ccc2c([nH]c3c(C)nccc32)c1Br"
tested_system = "GST-DYRK1A-ΔC (amino acids 1–499 of rat DYRK1A) (Rattus norvegicus, UniProt Q63470)"
label_class = "f"

[[record]]
compound = "COc1ccc2c3ccnc(C)c3n(C(C)C#N)c2c1 (racemic)"
tested_system = "GST-DYRK1A-ΔC (amino acids 1–499 of rat DYRK1A) (Rattus norvegicus, UniProt Q63470)"
label_class = "t"

[[record]]
compound = "Cc1nccc2c1C(=O)c1cc(O)ccc1-2"
tested_system = "GST-DYRK1A-ΔC (amino acids 1–499 of rat DYRK1A) (Rattus norvegicus, UniProt Q63470)"
label_class = "f"

[[record]]
compound = "N#CCn1c2c(Br)nccc2c2ccc(Cl)c(Cl)c21"
tested_system = "GST-DYRK1A-ΔC (amino acids 1–499 of rat DYRK1A) (Rattus norvegicus, UniProt Q63470)"
label_class = "f"

[[record]]
compound = "COc1c(Br)cc2c([nH]c3c(C)nccc32)c1Br"
tested_system = "GST-DYRK1A-ΔC (amino acids 1–499 of rat DYRK1A) (Rattus norvegicus, UniProt Q63470)"
label_class = "f"

[[record]]
compound = "COc1ccc2c3ccnc(C)c3n(CC(=O)N(C)C)c2c1"
tested_system = "GST-DYRK1A-ΔC (amino acids 1–499 of rat DYRK1A) (Rattus norvegicus, UniProt Q63470)"
label_class = "f"


Q) State whether 30% exceeds remaining activity at 1 µM recorded for "C#CCn1c2c(C)nccc2c2ccc(Cl)c(Cl)c21" .
A) t

Q) Follow-up item: "COc1ccc2c(c1)[nH]c1cnccc12"
A) f

---

# Tested system: GST-DYRK1A-ΔC (amino acids 1–499 of rat DYRK1A) (Rattus norvegicus, UniProt Q63470)
# Construct: containing amino acids 1–499 of rat DYRK1A; made in house; host or cells: E. coli
# Measurement protocol: Kinase-GLO luminescent assay of DYRK1A catalytic activity
# Format: biochemical
# Experimental parameters: 1 µM inhibitor concentration; residual activity relative to control without inhibitor; read-out: DYRK1A residual activity
Reported property: remaining activity at 1 µM (%)
Use % as the unit, but write only the number.

Known results for compounds:
[[record]]
compound = "C#CCn1c2cc(OC)ccc2c2ccnc(C)c21 [AnnH44]"
endpoint_result = 2

[[record]]
compound = "O=c1[nH]ccc2c1[nH]c1c(Cl)c(Cl)ccc12 [AnnH65]"
endpoint_result = 100

[[record]]
compound = "COc1ccc2c3ccnc(C)c3n(CCN3CCCCC3)c2c1 [AnnH57]"
endpoint_result = 33

[[record]]
compound = "COc1ccc2c3ccnc(C)c3n(CCCc3ccccc3)c2c1 [AnnH38]"
endpoint_result = 12


Q) Find remaining activity at 1 µM (GST-DYRK1A-ΔC (amino acids 1–499 of rat DYRK1A) (Rattus norvegicus, UniProt Q63470)) for the entry COc1ccc2c(c1)[nH]c1c(C)cccc12 [AnnHOG3, 7-Methoxy-1-methyl-9H-carbazole]
A) 71

Q) Follow-up item: C#CCn1c2cc(OC)ccc2c2ccnc(Cl)c21 [AnnH74]
A) 12

Q) Follow-up item: COc1ccc2c3c([nH]c2c1)C(=O)NCC3 [AnnH19]
A) 122

Q) Follow-up item: COc1ccc2c3ccnc(C)c3n(CCC#N)c2c1 [AnnH42]
A) 22

Q) Follow-up item: COc1ccc2c3ccnc(C)c3n(Cc3ccc4ccccc4c3)c2c1 [AnnH39]
A) 91

Q) Follow-up item: CCOC(=O)Cn1c2c(C)nccc2c2ccc(Cl)c(Cl)c21 [AnnH66]
A) 26

---

# Tested system: human recombinant MAO-A (Homo sapiens, UniProt P21397)
# Sequence (P21397 1-527): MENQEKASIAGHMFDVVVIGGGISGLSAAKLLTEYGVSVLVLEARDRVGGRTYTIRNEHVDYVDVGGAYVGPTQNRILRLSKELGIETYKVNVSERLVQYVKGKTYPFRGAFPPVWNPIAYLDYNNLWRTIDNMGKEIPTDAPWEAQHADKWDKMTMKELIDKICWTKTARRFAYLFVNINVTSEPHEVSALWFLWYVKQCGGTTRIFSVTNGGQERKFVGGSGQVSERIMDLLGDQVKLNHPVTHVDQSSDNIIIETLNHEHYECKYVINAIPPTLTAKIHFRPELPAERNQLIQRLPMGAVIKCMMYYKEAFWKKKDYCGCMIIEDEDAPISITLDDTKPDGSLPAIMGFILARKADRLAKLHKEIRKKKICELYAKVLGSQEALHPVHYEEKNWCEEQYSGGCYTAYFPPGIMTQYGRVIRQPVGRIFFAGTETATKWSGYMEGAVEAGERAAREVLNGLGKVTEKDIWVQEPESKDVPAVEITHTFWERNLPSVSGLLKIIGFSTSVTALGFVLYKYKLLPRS
# Measurement protocol: MAO-GLO luminescence assay of MAO-A catalytic activity
# Format: biochemical
# Experimental parameters: 1 µM inhibitor concentration; residual activity relative to control without inhibitor; read-out: MAO-A residual activity
Overview of recorded remaining activity at 1 µM for various compounds
Use % as the unit, but write only the number.

Known results for compounds:
[[record]]
compound = "COc1ccc2c3ccnc(Cl)c3n(CC#N)c2c1"
reported_property = "remaining activity at 1 µM"
units = "%"
endpoint_result = 119

[[record]]
compound = "C#CCn1c2c(Br)nccc2c2ccc(Cl)c(Cl)c21"
reported_property = "remaining activity at 1 µM"
units = "%"
endpoint_result = 123

[[record]]
compound = "COc1c(Br)cc2c([nH]c3c(C)nccc32)c1Br"
reported_property = "remaining activity at 1 µM"
units = "%"
endpoint_result = 70

[[record]]
compound = "COc1ccc2c3ccnc(C)c3n(CC(N)=O)c2c1"
reported_property = "remaining activity at 1 µM"
units = "%"
endpoint_result = 131

[[record]]
compound = "COc1ccc2c3ccnc(C)c3n(CC(=O)N(C)C)c2c1"
reported_property = "remaining activity at 1 µM"
units = "%"
endpoint_result = 130

[[record]]
compound = "COc1cc2[nH]c3c(C)nccc3c2cc1Br"
reported_property = "remaining activity at 1 µM"
units = "%"
endpoint_result = 7

[[record]]
compound = "COc1ccc2c([nH]c3c(C)nccc32)c1Br"
reported_property = "remaining activity at 1 µM"
units = "%"
endpoint_result = 8

[[record]]
compound = "COc1ccc2c(c1)[nH]c1cnccc12"
reported_property = "remaining activity at 1 µM"
units = "%"
endpoint_result = 45


Q) # remaining activity at 1 µM lookup, item "COc1ccc2c3ccnc(C)c3n(Cc3ccc4ccccc4c3)c2c1"
A) 125

Q) Follow-up item: "COc1ccc2c3ccnc(C)c3n(CCN3CCCCC3)c2c1"
A) 97

Q) Follow-up item: "Cc1nccc2c3ccc(Cl)c(Cl)c3n(CCCN(C)C)c12"
A) 110

Q) Follow-up item: "COc1ccc2c3ccnc(C)c3n(CC#N)c2c1"
A) 75

---

Overview of recorded remaining activity at 1 µM for various compounds
# Tested system: human recombinant MAO-A (Homo sapiens)
# Measurement protocol: MAO-GLO luminescence assay of MAO-A catalytic activity
# Type: biochemical
# Experimental parameters: 1 µM inhibitor concentration; residual activity relative to control without inhibitor; read-out: MAO-A residual activity
Use % as the unit, but write only the number.

Known results for compounds:
[[record]]
compound = "COc1ccc2c3ccnc(C)c3n(C(C)=O)c2c1 [AnnH59]"
units = "%"
endpoint_result = 19

[[record]]
compound = "COc1cc2[nH]c3c(C)nccc3c2cc1Cl [AnnH6_3_2]"
units = "%"
endpoint_result = 9

[[record]]
compound = "COc1ccc2c(c1)C(O)c1c-2ccnc1C (racemic) [AnnHT3]"
units = "%"
endpoint_result = 34

[[record]]
compound = "C#CCn1c2c(C)nccc2c2ccc(Cl)c(Cl)c21 [AnnH67]"
units = "%"
endpoint_result = 122

[[record]]
compound = "COc1ccc2c3ccnc(C)c3n(CC(=O)O)c2c1 [AnnH25]"
units = "%"
endpoint_result = 6

[[record]]
compound = "CCCCn1c2c(C)nccc2c2ccc(OC)c(Cl)c21 [AnnH11]"
units = "%"
endpoint_result = 4

[[record]]
compound = "COc1ccc2c3ccnc(C)c3n(CCN(C)C)c2c1 [AnnH16]"
units = "%"
endpoint_result = 103


Q) # remaining activity at 1 µM lookup, item CCOC(=O)Cn1c2cc(OC)ccc2c2ccnc(Cl)c21 [AnnH76]
A) 112
